assay: In vivo biodistribution in mice; design: species or system normal CD-1 male mice; settings: iv, 120 min post injection
Endpoint Name: Biodistribution: Heart (% dose/g)
Please reply with the bare figure in % dose/g and do not write the unit itself.

Solved cases (3 shown):
INSERT INTO results (compound, recorded_number) VALUES
  ('O=C([O-])CN(CCN(CC(=O)[O-])Cc1cc(CCC(=O)O)ccc1[O-])Cc1cc(CCC(=O)O)ccc1[O-].[68Ga+3] [[^68Ga]HBED-CC, reference compound]', 0.09),
  ('O=C([O-])CN(CCN(CC(=O)[O-])Cc1cc(CCC(=O)N[C@@H](CC(=O)O)C(=O)O)ccc1[O-])Cc1cc(CCC(=O)NC(P(=O)(O)O)P(=O)(O)O)ccc1[O-].[68Ga+3] [[^68Ga]1e]', 0.06),
  ('O=C(O)CN1CCN(CC(=O)O)CCN(CC(=O)NC(P(=O)(O)O)P(=O)(O)O)CCN(CC(=O)O)CC1.[68Ga] [[^68Ga]BPAMD, reference compound]', 0.26);

Prompt: Supply recorded Biodistribution: Heart for O=C([O-])CN(CCN(CC(=O)[O-])Cc1cc(CCC(=O)NC(P(=O)(O)O)P(=O)(O)O)ccc1[O-])Cc1cc(CCC(=O)NC2C(O)OC(CO)C(O)C2O)ccc1[O-].[68Ga+3] (centres unmarked) [[^68Ga]1b] here.
Response: 0.28

Prompt: Please give measured Biodistribution: Heart of the following entry: O=C([O-])CN(CCN(CC(=O)[O-])Cc1cc(CCC(=O)NC(P(=O)(O)O)P(=O)(O)O)ccc1[O-])Cc1cc(CCC(=O)O)ccc1[O-].[68Ga+3] [[^68Ga]1a]
Response: 0.07

Prompt: Return Biodistribution: Heart (reported value) for this compound: O=C([O-])CN(CCN(CC(=O)[O-])Cc1cc(CCC(=O)NC(P(=O)(O)O)P(=O)(O)O)ccc1[O-])Cc1cc(CCC(=O)NCCNC(=O)CN2CCN(CC(=O)O)CCN(CC(=O)O)CCN(CC(=O)O)CC2)ccc1[O-].[68Ga+3] [[^68Ga]1h]
Response: 0.05

Prompt: Supply Biodistribution: Heart value. Item: O=C([O-])CN(CCN(CC(=O)[O-])Cc1cc(CCC(=O)NC(P(=O)(O)O)P(=O)(O)O)ccc1[O-])Cc1cc(CCC(=O)NCCCNC(=O)CCc2ccc(O)c(CN(CCN(CC(=O)O)Cc3cc(CCC(=O)NC(P(=O)(O)O)P(=O)(O)O)ccc3O)CC(=O)O)c2)ccc1[O-].[68Ga+3] [[^68Ga]3]
Response: 1.05

Prompt: Return Biodistribution: Heart (reported value) for this compound: [18F-].[Na+] [[^18F]NaF, reference compound]
Response: 0.04

* * *

test: In vivo biodistribution in mice; parameters: species or system normal CD-1 male mice; settings: iv, 2 min post injection
Classify by measured Biodistribution: Bone: T if it is equal to or exceeds 9 % dose/g, F if it is smaller.

The following compounds have reported results that may help.
INSERT INTO assay_data (compound, cat) VALUES
  ('O=C(O)CN1CCN(CC(=O)O)CCN(CC(=O)NC(P(=O)(O)O)P(=O)(O)O)CCN(CC(=O)O)CC1.[68Ga] [[^68Ga]BPAMD, reference compound]', 'F'),
  ('O=C([O-])CN(CCN(CC(=O)[O-])Cc1cc(CCC(=O)NC(P(=O)(O)O)P(=O)(O)O)ccc1[O-])Cc1cc(CCC(=O)NCCNC(=O)CN2CCN(CC(=O)O)CCN(CC(=O)O)CCN(CC(=O)O)CC2)ccc1[O-].[68Ga+3] [[^68Ga]1h]', 'F'),
  ('O=C([O-])CN(CCN(CC(=O)[O-])Cc1cc(CCC(=O)NC(P(=O)(O)O)P(=O)(O)O)ccc1[O-])Cc1cc(CCC(=O)NC2C(O)OC(CO)C(O)C2O)ccc1[O-].[68Ga+3] (centres unmarked) [[^68Ga]1b]', 'F');

Prompt: In plain terms: is recorded Biodistribution: Bone at least 9 % dose/g for C[C@H](NC(=O)CCc1ccc([O-])c(CN(CCN(CC(=O)[O-])Cc2cc(CCC(=O)NC(P(=O)(O)O)P(=O)(O)O)ccc2[O-])CC(=O)[O-])c1)C(=O)O.[68Ga+3] [[^68Ga]1d] ?
Response: T
